System: MDA-MB-231 tumors
Test: in vivo
Format: in vivo, nude mice
Details: female, nude, mouse, in vivo, 2 h
Square brackets hold non-standard residues; d marks the D form. Peptide text beside a SMILES is read from it. * marks the point of attachment. DOTA = O=C(O)CN1CCN(CC(=O)O)CCN(CC(=O)*)CCN(CC(=O)O)CC1; Cha = N[C@@H](CC1CCCCC1)C(=O)O; Nle = CCCC[C@H](N)C(=O)O; Ahx = NCCCCCC(=O)O
Measured attribute: Uptake in Spleen (% ID/g)

Molecule	Measured result
CCCC[C@H](NC(=O)[C@H](Cc1c[nH]cn1)NC(=O)[C@H](CC1CCCCC1)NC(=O)[C@@H](NC(=O)[C@H](C)NC(=O)[C@H](Cc1c[nH]c2ccccc12)NC(=O)[C@H](CCC(N)=O)NC(=O)[C@H](CS)NC(=O)CNC(=O)CNC(=O)CCCCCNC(=O)CN1CCN(CC(=O)O)CCN(CC(=O)O)CCN(CC(=O)O)CC1)C(C)C)C(=O)N[C@@H](CCSC)C(N)=O [^68Ga-DOTA-Ahx-BN Tris-, metal not drawn] ({DOTA-Ahx}-GGCQWAV[Cha]H[Nle]M-NH2)	0.16

* * *

Target: BN/GRP receptor-positive PC3 human prostate cancer cells (Homo sapiens)
Construct: BN/GRP receptor-positive MDA-MB-231, MCF7, T47D human breast cancer, and PC3 human prostate cancer lines; intact cells
Assay: Saturation binding assay on PC3 cells
Conditions: ~300,000 cells, 0.1-25 nM radiopeptide, 60 min, room temperature, n = 3-5 experiments, mean ± SD
Numbered stars: 1 amine (or outer) side, 2 acyl side, 3 side chain; on linkers, the order of the positions; unused ones are H or OH. Square brackets hold non-standard residues; d marks the D form. Peptide text beside a SMILES is read from it. * marks the point of attachment. DOTA = O=C(O)CN1CCN(CC(=O)O)CCN(CC(=O)*)CCN(CC(=O)O)CC1; Cha = N[C@@H](CC1CCCCC1)C(=O)O; X1 = O=C(CCC(=O)[*:2])CN[*:1]; Nle = CCCC[C@H](N)C(=O)O

Compound	Kd, nM
CCCC[C@H](NC(=O)[C@H](Cc1c[nH]cn1)NC(=O)[C@H](CC1CCCCC1)NC(=O)[C@@H](NC(=O)[C@H](C)NC(=O)[C@H](Cc1c[nH]c2ccccc12)NC(=O)[C@H](CCC(N)=O)NC(=O)[C@H](CS)NC(=O)CNC(=O)CNC(=O)CCC(=O)CNC(=O)CN1CCN(CC(=O)O)CCN(CC(=O)O)CCN(CC(=O)O)CC1)C(C)C)C(=O)N[C@@H](CCSC)C(N)=O [^68Ga-DOTA-ALA-BN Cyclen, metal not drawn] ({DOTA}-[X1]GGCQWAV[Cha]H[Nle]M-NH2)	9.7

* * *

Tested on: MDA-MB-231 tumors
Experiment: in vivo
Format: in vivo, nude mice
Conditions: nude mice with MDA-MB-231 tumors, 1 h p.i.; mean ± SD, n = 3-5
Numbered stars: 1 amine (or outer) side, 2 acyl side, 3 side chain; on linkers, the order of the positions; unused ones are H or OH. Square brackets hold non-standard residues; d marks the D form. Peptide text beside a SMILES is read from it. * marks the point of attachment. DOTA = O=C(O)CN1CCN(CC(=O)O)CCN(CC(=O)*)CCN(CC(=O)O)CC1; Cha = N[C@@H](CC1CCCCC1)C(=O)O; X1 = O=C(CCC(=O)[*:2])CN[*:1]; 4Abz = Nc1ccc(C(=O)O)cc1; Nle = CCCC[C@H](N)C(=O)O; Ahx = NCCCCCC(=O)O

Compound	Uptake in Tumor (% ID/g)
CCCC[C@H](NC(=O)[C@H](Cc1c[nH]cn1)NC(=O)[C@H](CC1CCCCC1)NC(=O)[C@@H](NC(=O)[C@H](C)NC(=O)[C@H](Cc1c[nH]c2ccccc12)NC(=O)[C@H](CCC(N)=O)NC(=O)[C@H](CS)NC(=O)CNC(=O)CNC(=O)c1ccc(NC(=O)CN2CCN(CC(=O)O)CCN(CC(=O)O)CCN(CC(=O)O)CC2)cc1)C(C)C)C(=O)N[C@@H](CCSC)C(N)=O [^68Ga-DOTA-Abz-BN Cyclen, metal not drawn] ({DOTA-4Abz}-GGCQWAV[Cha]H[Nle]M-NH2)	1.84
CCCC[C@H](NC(=O)[C@H](Cc1c[nH]cn1)NC(=O)[C@H](CC1CCCCC1)NC(=O)[C@@H](NC(=O)[C@H](C)NC(=O)[C@H](Cc1c[nH]c2ccccc12)NC(=O)[C@H](CCC(N)=O)NC(=O)[C@H](CS)NC(=O)CNC(=O)CNC(=O)CCC(=O)CNC(=O)CN1CCN(CC(=O)O)CCN(CC(=O)O)CCN(CC(=O)O)CC1)C(C)C)C(=O)N[C@@H](CCSC)C(N)=O [^68Ga-DOTA-ALA-BN Cyclen, metal not drawn] ({DOTA}-[X1]GGCQWAV[Cha]H[Nle]M-NH2)	1.82
CCCC[C@H](NC(=O)[C@H](Cc1c[nH]cn1)NC(=O)[C@H](CC1CCCCC1)NC(=O)[C@@H](NC(=O)[C@H](C)NC(=O)[C@H](Cc1c[nH]c2ccccc12)NC(=O)[C@H](CCC(N)=O)NC(=O)[C@H](CS)NC(=O)CNC(=O)CNC(=O)CCCCCNC(=O)CN1CCN(CC(=O)O)CCN(CC(=O)O)CCN(CC(=O)O)CC1)C(C)C)C(=O)N[C@@H](CCSC)C(N)=O [^68Ga-DOTA-Ahx-BN Tris-, metal not drawn] ({DOTA-Ahx}-GGCQWAV[Cha]H[Nle]M-NH2)	2.09
CCCC[C@H](NC(=O)[C@H](Cc1c[nH]cn1)NC(=O)[C@H](CC1CCCCC1)NC(=O)[C@@H](NC(=O)[C@H](C)NC(=O)[C@H](Cc1c[nH]c2ccccc12)NC(=O)[C@H](CCC(N)=O)NC(=O)[C@H](CS)NC(=O)CNC(=O)CNC(=O)c1ccc(NC(=O)CN2CCN(CC(=O)O)CCN(CC(=O)O)CCN(CC(=O)O)CC2)cc1)C(C)C)C(=O)N[C@@H](CCSC)C(N)=O [^68Ga-DOTA-Abz-BN Tris-, metal not drawn] ({DOTA-4Abz}-GGCQWAV[Cha]H[Nle]M-NH2)	2.15

* * *

Measured Uptake in Lungs, listed per entry for reference.
Test: in vivo
Design: species or system Balb/c mice
Details: Balb/c, mouse, iv, 1 h
Numbered stars: 1 amine (or outer) side, 2 acyl side, 3 side chain; on linkers, the order of the positions; unused ones are H or OH. Square brackets hold non-standard residues; d marks the D form. Peptide text beside a SMILES is read from it. * marks the point of attachment. DOTA = O=C(O)CN1CCN(CC(=O)O)CCN(CC(=O)*)CCN(CC(=O)O)CC1; Cha = N[C@@H](CC1CCCCC1)C(=O)O; X1 = O=C(CCC(=O)[*:2])CN[*:1]; Nle = CCCC[C@H](N)C(=O)O; Ahx = NCCCCCC(=O)O

Molecule	Uptake in Lungs, %ID/g
CCCC[C@H](NC(=O)[C@H](Cc1c[nH]cn1)NC(=O)[C@H](CC1CCCCC1)NC(=O)[C@@H](NC(=O)[C@H](C)NC(=O)[C@H](Cc1c[nH]c2ccccc12)NC(=O)[C@H](CCC(N)=O)NC(=O)[C@H](CS)NC(=O)CNC(=O)CNC(=O)CCCCCNC(=O)CN1CCN(CC(=O)O)CCN(CC(=O)O)CCN(CC(=O)O)CC1)C(C)C)C(=O)N[C@@H](CCSC)C(N)=O [^68Ga-DOTA-Ahx-BN Tris-, metal not drawn] ({DOTA-Ahx}-GGCQWAV[Cha]H[Nle]M-NH2)	0.36
CCCC[C@H](NC(=O)[C@H](Cc1c[nH]cn1)NC(=O)[C@H](CC1CCCCC1)NC(=O)[C@@H](NC(=O)[C@H](C)NC(=O)[C@H](Cc1c[nH]c2ccccc12)NC(=O)[C@H](CCC(N)=O)NC(=O)[C@H](CS)NC(=O)CNC(=O)CNC(=O)CCC(=O)CNC(=O)CN1CCN(CC(=O)O)CCN(CC(=O)O)CCN(CC(=O)O)CC1)C(C)C)C(=O)N[C@@H](CCSC)C(N)=O [^68Ga-DOTA-ALA-BN Tris-, metal not drawn] ({DOTA}-[X1]GGCQWAV[Cha]H[Nle]M-NH2)	0.42
CCCC[C@H](NC(=O)[C@H](Cc1c[nH]cn1)NC(=O)[C@H](CC1CCCCC1)NC(=O)[C@@H](NC(=O)[C@H](C)NC(=O)[C@H](Cc1c[nH]c2ccccc12)NC(=O)[C@H](CCC(N)=O)NC(=O)[C@H](CS)NC(=O)CNC(=O)CNC(=O)CCC(=O)CNC(=O)CN1CCN(CC(=O)O)CCN(CC(=O)O)CCN(CC(=O)O)CC1)C(C)C)C(=O)N[C@@H](CCSC)C(N)=O [^68Ga-DOTA-ALA-BN Cyclen, metal not drawn] ({DOTA}-[X1]GGCQWAV[Cha]H[Nle]M-NH2)	1.39
